PROTOCOL_DESCRIPTION: Inhibition of binding of biotinylated chicken galectin-1A to surface immobilized asialofetuin by solid phase assay
Design: species or system Gallus gallus
ENDPOINT_LABEL: IC50 (µM)

C=CC[C@@H]1O[C@@H](C(=O)NCc2ccc(CNC(=O)[C@H]3O[C@H](CC=C)[C@H](OCc4ccccc4)[C@@H](OCc4ccccc4)[C@@H]3OCc3cn([C@@H]4O[C@H](CO)[C@@H](O[C@@H]5O[C@H](CO)[C@H](O)[C@H](O)[C@H]5O)[C@H](O)[C@H]4O)nn3)cc2)[C@H](OCc2cn([C@@H]3O[C@H](CO)[C@@H](O[C@@H]4O[C@H](CO)[C@H](O)[C@H](O)[C@H]4O)[C@H](O)[C@H]3O)nn2)[C@@H](OCc2ccccc2)[C@@H]1OCc1ccccc1	1400

P = OC[C@H]1O[C@@H](O[C@H]2[C@H](O)[C@@H](O)[C@H](n3cc(-c4ccc(-c5cn([C@@H]6O[C@H](CO)[C@@H](O[C@@H]7O[C@H](CO)[C@H](O)[C@H](O)[C@H]7O)[C@H](O)[C@H]6O)nn5)cc4)nn3)O[C@@H]2CO)[C@H](O)[C@@H](O)[C@H]1O
Q = O=C(/C=C/C(=O)N[C@@H]1O[C@H](CO)[C@@H](O[C@@H]2O[C@H](CO)[C@H](O)[C@H](O)[C@H]2O)[C@H](O)[C@H]1O)N[C@@H]1O[C@H](CO)[C@@H](O[C@@H]2O[C@H](CO)[C@H](O)[C@H](O)[C@H]2O)[C@H](O)[C@H]1O
Hey, between P and Q which has a smaller measured IC50? Use the label to indicate which entry you chose.
P

---

PROTOCOL_DESCRIPTION: Inhibition of binding of biotinylated chicken galectin-2 to surface immobilized asialofetuin by solid phase assay
Parameters: species or system Gallus gallus
pIC50: −log10 of the molar value.
ENDPOINT_LABEL: pIC50

OC[C@H]1O[C@@H](O[C@H]2[C@H](O)[C@@H](O)[C@H](n3cc(-c4ccc(-c5cn([C@@H]6O[C@H](CO)[C@@H](O[C@@H]7O[C@H](CO)[C@H](O)[C@H](O)[C@H]7O)[C@H](O)[C@H]6O)nn5)cc4)nn3)O[C@@H]2CO)[C@H](O)[C@@H](O)[C@H]1O	2.92
O=C(/C=C/C(=O)N[C@@H]1O[C@H](CO)[C@@H](O[C@@H]2O[C@H](CO)[C@H](O)[C@H](O)[C@H]2O)[C@H](O)[C@H]1O)N[C@@H]1O[C@H](CO)[C@@H](O[C@@H]2O[C@H](CO)[C@H](O)[C@H](O)[C@H]2O)[C@H](O)[C@H]1O	2.85
C=CC[C@@H]1O[C@@H](C(=O)NCc2ccc(CNC(=O)[C@H]3O[C@H](CC=C)[C@H](OCc4ccccc4)[C@@H](OCc4ccccc4)[C@@H]3OCc3cn([C@@H]4O[C@H](CO)[C@@H](O[C@@H]5O[C@H](CO)[C@H](O)[C@H](O)[C@H]5O)[C@H](O)[C@H]4O)nn3)cc2)[C@H](OCc2cn([C@@H]3O[C@H](CO)[C@@H](O[C@@H]4O[C@H](CO)[C@H](O)[C@H](O)[C@H]4O)[C@H](O)[C@H]3O)nn2)[C@@H](OCc2ccccc2)[C@@H]1OCc1ccccc1	3.19
O=C1NCc2ccc(cc2)CNC(=O)[C@@H]2O[C@@H](C/C=C/C[C@H]3O[C@H]1[C@@H](OCc1cn([C@@H]4O[C@H](CO)[C@@H](O[C@@H]5O[C@H](CO)[C@H](O)[C@H](O)[C@H]5O)[C@H](O)[C@H]4O)nn1)[C@H](OCc1ccccc1)[C@H]3OCc1ccccc1)[C@@H](OCc1ccccc1)[C@H](OCc1ccccc1)[C@H]2OCc1cn([C@@H]2O[C@H](CO)[C@@H](O[C@@H]3O[C@H](CO)[C@H](O)[C@H](O)[C@H]3O)[C@H](O)[C@H]2O)nn1	3.15
